Listed next: entries and their corresponding IC50.
Target: human LMPTP-A (Homo sapiens, UniProt P24666)
Sequence (P24666 1-158): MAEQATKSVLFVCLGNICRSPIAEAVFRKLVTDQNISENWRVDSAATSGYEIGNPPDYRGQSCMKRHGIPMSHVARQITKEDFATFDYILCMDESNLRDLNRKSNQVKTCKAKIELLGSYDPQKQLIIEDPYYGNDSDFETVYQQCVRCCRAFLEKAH

// query IC50 value for entry CCN(CC)C(=O)c1nc2ccc(-c3cc(NCCCN4CCCCC4)c4cnccc4n3)cc2o1
// result 1 to 20 µM

// query Request: CO/N=C(\NC1CCN(C)CC1)c1ccc(-c2cc(NCCCN3CCCCC3)c3cnccc3n2)cc1
// result ≤ 1 µM

// query And then CN1CCC(CCNC(=O)C#Cc2ccc(-c3cc(NCCCN4CCCCC4)c4cnccc4n3)cc2)CC1 , what is it?
// result 1 to 20 µM

// query Then what about the molecule CN1CCCN(CCNC(=O)COCc2ccc(-c3cc(NCCCN4CCCCC4)c4cnccc4n3)cc2)CC1 ?
// result ≤ 1 µM

// query Same thing, different molecule: CN1CCC(Nc2cc(-c3ccc(C(=O)NCCCN4CCCCC4)cc3)nc3ccncc23)C1 (stereo not shown)
// result 1 to 20 µM

----------
Molecular target: human LMPTP-A (Homo sapiens, UniProt P24666)
Sequence (P24666 1-158): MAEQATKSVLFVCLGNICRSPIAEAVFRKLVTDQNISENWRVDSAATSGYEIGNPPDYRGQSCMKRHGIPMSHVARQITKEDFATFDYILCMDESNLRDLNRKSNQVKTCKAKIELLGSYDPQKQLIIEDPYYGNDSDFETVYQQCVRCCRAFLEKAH
pIC50: −log10 of the molar value.
observation type: pIC50

> print(dat)
                                item.smiles  observation.type  measured.result
1  CN1CCC(CNC(=O)CCc2ccc(-c3cc(NCCCN4CCCCC4)c4cnccc4n3)cc2)CC1             pIC50           ≥ 6.00

// query Would you kindly share the measured pIC50 for CCN(CC)C(=O)c1ccc(-c2cc(NCCCN3CCCCC3)c3cnccc3n2)c(C(F)(F)F)c1 ?
// result ≥ 6.00

// query Would you mind doing CN1CCC(CCNC(=O)COCc2ccc(-c3cc(NCCCN4CCCCC4)c4cnccc4n3)cc2)CC1 as well?
// result ≥ 6.00

// query Also check CCN(CC)C(=O)c1ccc(-c2cc(NCCN3CCOCC3)c3cnccc3n2)cc1
// result 4.70 to 6.00

// query One more compound: O=C(NCCCN1CCCCC1)c1cc2cc(-c3cc(NCCCN4CCCCC4)c4cnccc4n3)ccc2s1
// result 4.70 to 6.00

// query Try CNc1cc(-c2ccc3c(c2)cc(C(=O)NC2CCN(C)CC2)n3C)nc2ccncc12 next.
// result 4.70 to 6.00

----------
Target: human LMPTP-A (Homo sapiens)
Sequence (P24666 1-158): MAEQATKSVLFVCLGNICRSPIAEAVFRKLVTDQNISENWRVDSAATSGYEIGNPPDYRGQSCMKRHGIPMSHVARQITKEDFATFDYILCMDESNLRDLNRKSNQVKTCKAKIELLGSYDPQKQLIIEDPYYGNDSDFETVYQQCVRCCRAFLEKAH
pIC50: −log10 of the molar value.
observation type: pIC50

> print(dat)
                                 item.smiles  observation.type  measured.result
 1  CN1CCC(CNC(=O)c2cc3cc(-c4cc(NC5CCN(C)CC5)c5cnccc5n4)ccc3n2C)CC1             pIC50           ≥ 6.00
 2  CCN(CC)C(=O)c1ccc(-c2cc(Nc3ccc(N(C)C)cc3)c3cnccc3n2)cc1             pIC50     4.70 to 6.00
 3  CN1CCC(NC(=O)c2ccc(-c3cc(NCCCN4CCCCC4)c4cncc(Br)c4n3)cc2)CC1             pIC50           ≤ 4.70
 4  CN1CCC(NC(=O)COc2ccc(-c3cc(NCCCN4CCCCC4)c4cnccc4n3)cc2)CC1             pIC50           ≤ 4.70
 5  CN1CCC(NC(=O)/C=C/c2ccc(-c3cc(NCCCN4CCCCC4)c4cnccc4n3)cc2)CC1             pIC50           ≥ 6.00
 6  O=C(NC1CCNCC1)c1cc2ccc(-c3cc(NCCCN4CCCCC4)c4cnccc4n3)cc2[nH]1             pIC50     4.70 to 6.00
 7  CN1CCCN(CCNC(=O)CCc2ccc(-c3cc(NCCCN4CCCCC4)c4cnccc4n3)cc2)CC1             pIC50           ≥ 6.00
 8  CN1CCC(NC(=O)c2cc3cc(-c4cc(NC5CCN(C)CC5)c5cnccc5n4)ccc3n2C)CC1             pIC50           ≥ 6.00
 9  CN1CCC(CCNC(=O)CCc2ccc(-c3cc(NCCCN4CCCCC4)c4cnccc4n3)cc2)CC1             pIC50           ≥ 6.00
10  CCN(CC)C(=O)c1ccc(-c2cc(NCCCN3CCCCC3)c3cncc(C)c3n2)cc1             pIC50           ≤ 4.70

// query Entry O=C(NCCCN1CCCCC1)c1nc2cc(-c3cc(Nc4ccc(CN5CCCC5)cc4)c4cnccc4n3)ccc2[nH]1 : reported pIC50 = ?
// result ≥ 6.00

// query Record: CCN(CC)C(=O)CCOc1ccc(-c2cc(NCCCN3CCCCC3)c3cnccc3n2)cc1
// result ≤ 4.70

// query Next record, please: CCN(CC)C(=O)c1ccc(-c2cc(NCCCN3CCNCC3)c3cnccc3n2)cc1
// result 4.70 to 6.00

// query Same question, O=C(c1nc2ccc(-c3cc(NCCCN4CCCCC4)c4cnccc4n3)cc2s1)N1CCOCC1 this time
// result 4.70 to 6.00

// query What do we get for CCN1CCN(C(=O)c2nc3cc(-c4cc(NCCCN5CCCCC5)c5cnccc5n4)ccc3n2CC)CC1 ?
// result ≥ 6.00

// query Queued: NC1CCN(C(=O)CCc2ccc(-c3cc(NCCCN4CCCCC4)c4cnccc4n3)cc2)CC1
// result ≥ 6.00

// query And the next one, O=C(c1nc2cc(-c3cc(NCCCN4CCCCC4)c4cnccc4n3)ccc2[nH]1)N1CCNCC1 ?
// result ≥ 6.00

// query // same read-out, input: CCNC1CCN(C(=O)CCc2ccc(-c3cc(NCCCN4CCCCC4)c4cnccc4n3)cc2)CC1
// result ≥ 6.00

// query Thanks! And CN1CCC(CCNC(=O)/C=C/c2ccc(-c3cc(NCCCN4CCCCC4)c4cnccc4n3)cc2)CC1 ?
// result ≥ 6.00

// query Try CCN(CC)C(=O)COCc1ccc(-c2cc(NCCCN3CCCCC3)c3cnccc3n2)cc1 next.
// result 4.70 to 6.00

// query And CN1CCN(CCCNC(=O)c2nc3cc(-c4cc(NCCCN5CCCCC5)c5cnccc5n4)ccc3[nH]2)CC1 ?
// result ≥ 6.00

// query // next record CN(C)CCNC(=O)c1cc2ccc(-c3cc(NCCCN4CCCCC4)c4cnccc4n3)cc2[nH]1
// result 4.70 to 6.00

// query And the next one, O=C(NC1CCNCC1)c1nc2cc(-c3cc(NCCCN4CCCCC4)c4cnccc4n3)ccc2[nH]1 ?
// result ≥ 6.00
